- Tested on: MS2 coat protein
- PROTOCOL: apparent KD of MS2 coat protein; designed switch direction (-1 OFF switch, 1 ON switch): -1; higher = weaker reporter binding
- CONDITION_DESCRIPTION: input ligand: FMN 200 uM
Would you mind telling me the reported apparent KD of MS2 coat protein of each entry?
Number only, in nM; omit the unit.

Notebook: pull reported apparent KD of MS2 coat protein for MS2 coat protein, entry ACAUGAUCAGGAUAUACAUGAGGAUCACCCAUGUAAAUCAAAAAAAAACUUUCUUUAUGUAGAAGGGAUCUUGU [EX3 270: Random 6] (Eterna round: R96, puzzle: Exclusion 3) 15.2

Then AAUAACAAGCCGAUCCUCCACAUGAGGAUCACCCAUGUGCUCGUCUUGUAAAGUACUAUCACGAAAGUGAUAGUACA (Eterna round: R97, puzzle: Sensor, turn-off variant 1) ? 39.2

Then AGUUGUUGUUUCCGUUCUUACAUGAGGAUCACCCAUGUUUCUUGUCGUGCUCGCGUUGCUCGUCUGGCUGCCUGUUG [salish99_TOv1_r3_069] (Eterna round: R96, puzzle: Sensor v3, turn-off variant 1) ? 47

Then CCAUGCACGCUGCGGUCCUACAUGAGGAUCACCCAUGUGGUCUGGUGGCGUGGGUCGCCGGACUUGGCUCGUCUUGA [salish99_S_TOV1_R5_022] (Eterna round: R97, puzzle: Sensor, turn-off variant 1) ? 25.6

Then CCGAGCAUAUGAGGAUCAGACAUGAGGAUCACCCAUGUGCUCCGUCGAAGGAAUAAUCAUAAUGCUGGCUCGUCGUG [Eternabot (L2) Solution 6] (Eterna round: R97, puzzle: Sensor, turn-off variant 1) ? 555
